- experimental.system: T1, human DLL3 on cells (human, UniProt Q9NYJ7 27-618)
- T1 construct: Endogenous on H1184 and SHP77; Cell line is named under assay; also called H1184; DLL3/H82
- T1 sequence: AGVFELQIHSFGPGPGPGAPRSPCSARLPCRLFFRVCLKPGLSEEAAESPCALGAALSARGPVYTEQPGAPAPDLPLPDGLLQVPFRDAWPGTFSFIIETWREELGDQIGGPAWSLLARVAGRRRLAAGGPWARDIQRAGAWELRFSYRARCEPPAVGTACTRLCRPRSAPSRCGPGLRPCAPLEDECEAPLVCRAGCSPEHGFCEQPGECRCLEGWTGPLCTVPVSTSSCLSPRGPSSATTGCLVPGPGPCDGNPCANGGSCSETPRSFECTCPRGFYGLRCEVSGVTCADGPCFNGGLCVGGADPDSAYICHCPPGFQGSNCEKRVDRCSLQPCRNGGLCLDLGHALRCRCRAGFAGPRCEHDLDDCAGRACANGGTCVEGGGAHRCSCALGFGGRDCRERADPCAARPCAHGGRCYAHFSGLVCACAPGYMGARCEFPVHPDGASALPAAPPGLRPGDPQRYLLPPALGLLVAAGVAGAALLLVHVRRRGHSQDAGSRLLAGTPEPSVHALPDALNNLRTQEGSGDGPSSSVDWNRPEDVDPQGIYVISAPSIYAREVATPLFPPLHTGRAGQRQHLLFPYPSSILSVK
- assay.remarks: flow cytometry, DLL3/H82 cells
- Experimental: The plates were centrifuged at 300 g for 5 min, and the supernatant was removed. Different concentrations of test antibodies were added at 100 μL/well. The plates were incubated in the dark in a refrigerator at 4° C. for 1 h. […] After 3 centrifugal washes at 300 g, the geometric mean fluorescence intensity was measured on an Invitrogen flow cytometer, and the EC50 values for the binding of the antibodies to DLL3-expressing cells were calculated.
Could you please report measured Emax for the items listed next?
Write the number on its own, no unit after it.

Kindly note the recorded Emax for hu110L2H3 (antibody, human IgG1, kappa, V domains shown) VH: EVQLVQSGAEVKKPGASVKVSCKTSGYTFTDYYMNWVRQAPGQSLEWMGIINPYQGGTSYTQKFKGRVTITVDKSASTAYMELSSLRSEDTAVYYCARHFYDSSYLTYSTMDYWGQGTTVTVSS VL: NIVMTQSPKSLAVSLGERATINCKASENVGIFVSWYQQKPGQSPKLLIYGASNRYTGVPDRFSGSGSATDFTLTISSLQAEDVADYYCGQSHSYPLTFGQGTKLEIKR , which is 4570

The binder listed as hu110L1H1 (antibody, human IgG1, kappa, V domains shown) VH: EVQLVQSGAEVKKPGASVKVSCKASGYTFTDYYMNWVRQAPGQRLEWMGIINPYNGGTSYTQKFKGRVTITVDKSASTAYMELSSLRSEDTAVYYCARHFYDSSYLTYSTMDYWGQGTTVTVSS VL: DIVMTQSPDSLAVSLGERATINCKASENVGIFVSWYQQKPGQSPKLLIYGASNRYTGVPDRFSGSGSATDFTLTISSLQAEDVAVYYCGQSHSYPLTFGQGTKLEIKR has a reported Emax of 4470

Where do the numbers come from? From patent US20250376519A1.
